# protocolText: Ratio of K(app) for [A-T] to [G-C]
hey, just use satisfied if measured Selectivity ratio is less than 2, otherwise not satisfied

State whether 2 exceeds Selectivity ratio recorded for CN(C)CCn1c(=O)c2ccc(NCCCN(C)CCCN3C(=O)c4cccc5cccc(c45)C3=O)c3c(=O)c4ccccc4n(c1=O)c23 .
not satisfied

State whether 2 exceeds Selectivity ratio recorded for Cc1ccc2c(c1)c(=O)c1c(NCCCN(C)CCCN3C(=O)c4cccc5cccc(c45)C3=O)ccc3nnn2c31.Cl .
satisfied

State whether 2 exceeds Selectivity ratio recorded for COc1ccc2c(c1)c(=O)c1c(NCCCN(C)CCCN3C(=O)c4cccc5cc([N+](=O)[O-])cc(c45)C3=O)ccc3c(=O)n(CCN(C)C)c(=O)n2c31 .
not satisfied

State whether 2 exceeds Selectivity ratio recorded for CN(C)CCCNC(=O)c1ccc(NCCCN(C)CCCN2C(=O)c3cccc4cccc(c34)C2=O)c2c(O)c3ccccc3nc12 .
not satisfied

State whether 2 exceeds Selectivity ratio recorded for CN(C)CCCn1c(=O)c2ccc(NCCCN(C)CCCN3C(=O)c4cccc5cc([N+](=O)[O-])cc(c45)C3=O)c3c(=O)c4ccccc4n(c1=O)c23 .
not satisfied

State whether 2 exceeds Selectivity ratio recorded for COc1cc2c(=O)c3c(NCCCN(C)CCCN4C(=O)c5cccc6cc([N+](=O)[O-])cc(c56)C4=O)ccc4c(=O)n(CCN(C)C)c(=O)n(c2cc1OC)c43 .
satisfied

State whether 2 exceeds Selectivity ratio recorded for CN(C)CCn1c(=O)c2ccc(NCCCN(C)CCCN3C(=O)c4cccc5cc([N+](=O)[O-])cc(c45)C3=O)c3c(=O)c4ccccc4n(c1=O)c23.Cl .
not satisfied

State whether 2 exceeds Selectivity ratio recorded for CN(C)CCNC(=O)c1ccc(NCCCN(C)CCCN2C(=O)c3cccc4cc([N+](=O)[O-])cc(c34)C2=O)c2c(O)c3ccccc3nc12 .
not satisfied

State whether 2 exceeds Selectivity ratio recorded for CN(C)CCCNC(=O)c1ccc(NCCCN(C)CCCN2C(=O)c3cccc4cc([N+](=O)[O-])cc(c34)C2=O)c2c(O)c3ccccc3nc12 .
not satisfied

State whether 2 exceeds Selectivity ratio recorded for CN(C)CCNC(=O)c1ccc(NCCCN(C)CCCNc2ccc3c(=O)n(CCN(C)C)c(=O)n4c5ccccc5c(=O)c2c34)c2c(O)c3cc([N+](=O)[O-])ccc3nc12.Cl .
satisfied

State whether 2 exceeds Selectivity ratio recorded for CN(C)CCCn1c(=O)c2ccc(NCCCN(C)CCCN3C(=O)c4cccc5cccc(c45)C3=O)c3c(=O)c4ccccc4n(c1=O)c23 .
not satisfied

State whether 2 exceeds Selectivity ratio recorded for CN(C)CCNC(=O)c1ccc(NCCCN(C)CCCN2C(=O)c3cccc4cc([N+](=O)[O-])cc(c34)C2=O)c2c(O)c3cc([N+](=O)[O-])ccc3nc12 .
not satisfied

State whether 2 exceeds Selectivity ratio recorded for CN(C)CCNC(=O)c1ccc(NCCCN(C)CCCNc2ccc3c(=O)n(CCN(C)C)c(=O)n4c5ccccc5c(=O)c2c34)c2c(O)c3ccccc3nc12 .
satisfied

State whether 2 exceeds Selectivity ratio recorded for CN(C)CCNC(=O)c1ccc(NCCCN(C)CCCN2C(=O)c3cccc4cccc(c34)C2=O)c2c(O)c3cc([N+](=O)[O-])ccc3nc12 .
satisfied

State whether 2 exceeds Selectivity ratio recorded for COc1ccc2c(c1)c(=O)c1c(NCCCN(C)CCCN3C(=O)c4cccc5cccc(c45)C3=O)ccc3c(=O)n(CCN(C)C)c(=O)n2c31 .
not satisfied

Values compiled from ChEMBL document CHEMBL1138883.
